- Tested on: MOLM14
- Protocol description: cell viability relative to vehicle control; higher = less cytotoxic;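 also: after 48 h exposure read by CellTiter-Glo luminescence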
- Condition parameters: 10 µM; SRSF2 genotype: SRSF2 P95H/wt
Endpoint name: cell viability (%)
Report as a plain number; the unit % is understood.

O=C(Cn1cnnn1)N[C@@H]1C(=O)N2C(C(=O)O)=C(CSc3nncs3)CS[C@H]12
105

--- query ---
So what does the record say about cell viability for Cc1cc(SCc2sc(-c3ccc(C(F)(F)F)cc3)nc2C)ccc1OCC(=O)O ?
87.6

----------
- Tested on: K562
- Protocol description: cell viability relative to vehicle control; higher = less cytotoxic
- Condition parameters: 10 µM; SRSF2 genotype: SRSF2 wt/wt
Counter-ions that a name gives are not always drawn.
Endpoint name: cell viability (%)
Report as a plain number; the unit % is understood.

Would you please look over these solved cases?
COC(=O)CC[C@H](NC(=O)[C@H](CC(=O)OC)NC(=O)OCc1ccccc1)C(=O)N[C@H](C(=O)N[C@@H](CC(=O)OC)C(=O)CF)C(C)C
93.7
C[Si](C)(C)CCOCn1ccc2c(-c3cn[nH]c3)ncnc21
109
CCCc1nn(C)c2c(=O)[nH]c(-c3cc(S(=O)(=O)N4CCN(C)CC4)ccc3OCC)nc12 [Sildenafil citrate]
103
CC[C@H]1OC(=O)[C@H](C)[C@@H](O[C@H]2C[C@@](C)(OC)[C@@H](O)[C@H](C)O2)[C@H](C)[C@@H](O[C@@H]2O[C@H](C)C[C@H](N(C)C)[C@H]2O)[C@](C)(O)C[C@@H](C)CN[C@H](C)[C@@H](O)[C@]1(C)O
115
COc1ccc(Cl)cc1NC(=O)Nc1cc(C)nc2ccccc12
87
NCCCC[C@@H]1NC(=O)[C@@H](Cc2ccc(O)cc2)NC(=O)[C@H](CC(=O)O)NC(=O)CNC(=O)[C@H](CCCN=C(N)N)NC1=O [Cyclo(RGDyK)]
89.8
Nc1nc(NCCc2ccc(O)cc2)nc2nc(-c3ccco3)nn12
94.8
O=S(=O)(NCCSSCCNS(=O)(=O)c1cc(Cl)ccc1Cl)c1cc(Cl)ccc1Cl
69.5
O=C(O)c1cccnc1
109
C[C@@H]1Cc2c([nH]c3ccccc23)[C@@H](c2c(F)cc(/C=C/C(=O)O)cc2F)N1CC(C)(C)F
108

Field: cell viability (K562). Entry: C[C@@H]1O[C@@H](O[C@H]2[C@H](O[C@H]3CC[C@@]4(C)[C@@H](CC[C@]5(C)[C@@H]4CC=C4[C@@H]6CC(C)(C)CC[C@]6(C(=O)O)CC[C@]45C)[C@]3(C)CO)OC[C@H](O[C@@H]3O[C@H](CO)[C@@H](O)[C@H](O)[C@H]3O)[C@@H]2O)[C@H](O)[C@H](O)[C@H]1O
0.55

Field: cell viability (K562). Entry: C[C@]1(O)C[C@@H](c2nc(-c3ccc4ccc(-c5ccccc5)nc4c3)c3c(N)nccn32)C1
80.6

Field: cell viability (K562). Entry: CN1C(C(=O)Nc2ccccn2)=C(O)c2ccccc2S1(=O)=O
100

Field: cell viability (K562). Entry: NC(=O)Cc1c[nH]c2ccccc12 [Indole-3-acetamide]
107

Field: cell viability (K562). Entry: C[C@H]1O[C@@H](O[C@H]2CC[C@@]3(C)[C@@H](CC[C@]4(C)[C@@H]3C=C[C@]35OC[C@@]6(CCC(C)(C)C[C@H]63)[C@@H](O)C[C@]54C)[C@]2(C)CO)[C@H](O)[C@@H](O[C@@H]2O[C@H](CO)[C@@H](O)[C@H](O)[C@H]2O)[C@H]1O
23.1

Field: cell viability (K562). Entry: Cc1cc(C)cc(Oc2ccc(CNC(=O)[C@H](C)N)cc2C)c1
93.9

Field: cell viability (K562). Entry: CC1(COc2ccc3c(c2)ncn3-c2ccc3cccc(N4CCC(N)CC4)c3n2)COC1
71.4

Field: cell viability (K562). Entry: C[C@H]1COC2(CCN(c3nc(=O)c4cc(C(F)(F)F)cc([N+](=O)[O-])c4s3)CC2)O1 (racemic) [BTZ043 racemate]
84.1

Field: cell viability (K562). Entry: CC(C)c1ccccc1Cc1cc(C(=O)Nc2ccc(S(=O)(=O)c3ccccc3C(C)(C)C)cc2)c(O)c(O)c1O
7.92

Field: cell viability (K562). Entry: CC(C)=CCC[C@](C)(O[C@@H]1O[C@H](CO[C@@H]2OC[C@@H](O)[C@H](O)[C@H]2O)[C@@H](O)[C@H](O)[C@H]1O)[C@H]1CC[C@]2(C)[C@@H]1[C@H](O)C[C@@H]1[C@@]3(C)CC[C@H](O[C@@H]4O[C@H](CO)[C@@H](O)[C@H](O)[C@H]4O[C@@H]4O[C@H](CO)[C@@H](O)[C@H](O)[C@H]4O)C(C)(C)[C@@H]3CC[C@]12C [Ginsenoside Rb3]
108

Field: cell viability (K562). Entry: c1ccc(-c2nn3c(c2-c2ccnc4cc(OCCN5CCOCC5)ccc24)CCC3)nc1
97.1

Field: cell viability (K562). Entry: CN(C)CCSSCCNC(=O)C1CCN(C(=O)CSc2ccc(Cl)cc2)CC1
81.6
